Origin of the recorded values: the supplement of paper PMC11424490

Test system: NCI-H2122
Experiment: combination cScore with sotorasib (Bliss gap around IC50) (%PoC); higher = stronger additive effect
Catalogue of compounds with associated combination cScore with sotorasib

{"columns": ["Compound", "Measurement target", "combination cScore with sotorasib"],
 "data": [
  ["CC(C)n1nc(-c2ccc3oc(N)nc3c2)c2c(N)ncnc21 [MLN-0128] + C=CC(=O)N1CCN(c2nc(=O)n(-c3c(C)ccnc3C(C)C)c3nc(-c4c(O)cccc4F)c(F)cc23)[C@@H](C)C1 [sotorasib]", "NCI-H2122", 6.3],
  ["O=c1cc(N2CCOCC2)oc2c(-c3cccc4c3sc3ccccc34)cccc12 [NU-7441] + C=CC(=O)N1CCN(c2nc(=O)n(-c3c(C)ccnc3C(C)C)c3nc(-c4c(O)cccc4F)c(F)cc23)[C@@H](C)C1 [sotorasib]", "NCI-H2122", 15],
  ["COc1ncc(-c2nc3c(n2C(C)C)[C@H](c2ccc(Cl)cc2)N(c2cc(Cl)cn(C)c2=O)C3=O)c(OC)n1 [HDM-201] + C=CC(=O)N1CCN(c2nc(=O)n(-c3c(C)ccnc3C(C)C)c3nc(-c4c(O)cccc4F)c(F)cc23)[C@@H](C)C1 [sotorasib]", "NCI-H2122", 1.73],
  ["CNCc1ccc(-c2cc(-c3nc(-c4ccc(S(=O)(=O)C(C)C)cc4)cnc3N)on2)cc1 [VE-822/VX-970] + C=CC(=O)N1CCN(c2nc(=O)n(-c3c(C)ccnc3C(C)C)c3nc(-c4c(O)cccc4F)c(F)cc23)[C@@H](C)C1 [sotorasib]", "NCI-H2122", 2.89],
  ["Cc1cc(C)c(CNC(=O)c2cc(-c3ccc(N4CCNCC4)nc3)cc3c2c(C)cn3C2CCCC2)c(=O)[nH]1 + C=CC(=O)N1CCN(c2nc(=O)n(-c3c(C)ccnc3C(C)C)c3nc(-c4c(O)cccc4F)c(F)cc23)[C@@H](C)C1 [sotorasib]", "NCI-H2122", 10.7],
  ["CC1(N)CCN(c2cnc(-c3cccc(Cl)c3Cl)c(N)n2)CC1 [SHP099] + C=CC(=O)N1CCN(c2nc(=O)n(-c3c(C)ccnc3C(C)C)c3nc(-c4c(O)cccc4F)c(F)cc23)[C@@H](C)C1 [sotorasib]", "NCI-H2122", 19.1],
  ["Nc1cccc2c1CN(C1CCC(=O)NC1=O)C2=O (stereo unspecified) [Lenalidomide] + C=CC(=O)N1CCN(c2nc(=O)n(-c3c(C)ccnc3C(C)C)c3nc(-c4c(O)cccc4F)c(F)cc23)[C@@H](C)C1 [sotorasib]", "NCI-H2122", 6.13],
  ["CC(=O)O[C@@]12CO[C@@H]1C[C@H](O)[C@@]1(C)C(=O)[C@H](O)C3=C(C)[C@@H](OC(=O)[C@H](O)[C@@H](NC(=O)OC(C)(C)C)c4ccccc4)C[C@@](O)([C@@H](OC(=O)c4ccccc4)[C@H]21)C3(C)C [Docetaxel] + C=CC(=O)N1CCN(c2nc(=O)n(-c3c(C)ccnc3C(C)C)c3nc(-c4c(O)cccc4F)c(F)cc23)[C@@H](C)C1 [sotorasib]", "NCI-H2122", 1.66],
  ["CC(C)C[C@H](NC(=O)[C@H](Cc1ccccc1)NC(=O)c1cnccn1)B(O)O [Bortezomib] + C=CC(=O)N1CCN(c2nc(=O)n(-c3c(C)ccnc3C(C)C)c3nc(-c4c(O)cccc4F)c(F)cc23)[C@@H](C)C1 [sotorasib]", "NCI-H2122", 5.05],
  ["O=[N+]([O-])c1ccc(NCCNc2ncc(-c3ncc[nH]3)c(-c3ccc(Cl)cc3Cl)n2)nc1 + C=CC(=O)N1CCN(c2nc(=O)n(-c3c(C)ccnc3C(C)C)c3nc(-c4c(O)cccc4F)c(F)cc23)[C@@H](C)C1 [sotorasib]", "NCI-H2122", -9.14],
  ["Cc1cn(-c2cc(NC(=O)c3ccc(C)c(Nc4nccc(-c5cccnc5)n4)c3)cc(C(F)(F)F)c2)cn1 [Nilotinib] + C=CC(=O)N1CCN(c2nc(=O)n(-c3c(C)ccnc3C(C)C)c3nc(-c4c(O)cccc4F)c(F)cc23)[C@@H](C)C1 [sotorasib]", "NCI-H2122", 6.86],
  ["CS(=O)(=O)c1ccc(-c2cnc(N)c(C(=O)Nc3ccccc3)n2)cc1 [VE-821] + C=CC(=O)N1CCN(c2nc(=O)n(-c3c(C)ccnc3C(C)C)c3nc(-c4c(O)cccc4F)c(F)cc23)[C@@H](C)C1 [sotorasib]", "NCI-H2122", 6.24],
  ["Cc1c(-c2c(-c3ccc(F)o3)sc3ncnc(O[C@H](Cc4ccccc4OCc4ccnn4CC(F)(F)F)C(=O)O)c23)ccc(OCCN2CCN(C)CC2)c1Cl + C=CC(=O)N1CCN(c2nc(=O)n(-c3c(C)ccnc3C(C)C)c3nc(-c4c(O)cccc4F)c(F)cc23)[C@@H](C)C1 [sotorasib]", "NCI-H2122", 10.4],
  ["Cc1ccc(Nc2nccc(N(C)c3ccc4c(C)n(C)nc4c3)n2)cc1S(N)(=O)=O [Pazopanib] + C=CC(=O)N1CCN(c2nc(=O)n(-c3c(C)ccnc3C(C)C)c3nc(-c4c(O)cccc4F)c(F)cc23)[C@@H](C)C1 [sotorasib]", "NCI-H2122", 9.15],
  ["CC1(C)CCC(CN2CCN(c3ccc(C(=O)NS(=O)(=O)c4ccc(NCC5CCOCC5)c([N+](=O)[O-])c4)c(Oc4cnc5[nH]ccc5c4)c3)CC2)=C(c2ccc(Cl)cc2)C1 [ABT-199] + C=CC(=O)N1CCN(c2nc(=O)n(-c3c(C)ccnc3C(C)C)c3nc(-c4c(O)cccc4F)c(F)cc23)[C@@H](C)C1 [sotorasib]", "NCI-H2122", 11.2],
  ["CCc1cnn2c(NCc3ccc[n+]([O-])c3)cc(N3CCCC[C@H]3CCO)nc12 + C=CC(=O)N1CCN(c2nc(=O)n(-c3c(C)ccnc3C(C)C)c3nc(-c4c(O)cccc4F)c(F)cc23)[C@@H](C)C1 [sotorasib]", "NCI-H2122", 7.04]
]}

* * *

Catalogue of compounds with associated combination cScore with adagrasib
Test system: SW837
Experiment: combination cScore with adagrasib (Bliss gap around IC50) (%PoC); higher = stronger additive effect
Result type: combination cScore with adagrasib

{"columns": ["Compound", "Measured result"],
 "data": [
  ["O=C(/C=C/c1cccc(S(=O)(=O)Nc2ccccc2)c1)NO [Belinostat] + C=C(F)C(=O)N1CCN(c2nc(OC[C@@H]3CCCN3C)nc3c2CCN(c2cccc4cccc(Cl)c24)C3)C[C@@H]1CC#N [adagrasib]", 5.49],
  ["CC(C)(C(=O)NCC(F)(F)C(F)(F)F)C(=O)N[C@@H]1C(=O)Nc2ccccc2-c2ccccc21 + C=C(F)C(=O)N1CCN(c2nc(OC[C@@H]3CCCN3C)nc3c2CCN(c2cccc4cccc(Cl)c24)C3)C[C@@H]1CC#N [adagrasib]", 9.86]
]}

* * *

System: SW837
Experiment: combination cScore with adagrasib (Bliss gap around IC50) (%PoC); higher = stronger additive effect
Catalogue of compounds with associated combination cScore with adagrasib
Result type: combination cScore with adagrasib

{"columns": ["Compound", "Result type", "Measured result"],
 "data": [
  ["C[C@]1(c2nc3c(C(N)=O)cccc3[nH]2)CCCN1 [Veliparib] + C=C(F)C(=O)N1CCN(c2nc(OC[C@@H]3CCCN3C)nc3c2CCN(c2cccc4cccc(Cl)c24)C3)C[C@@H]1CC#N", "combination cScore with adagrasib", 5.64],
  ["CCc1cnn2c(NCc3ccc[n+]([O-])c3)cc(N3CCCC[C@H]3CCO)nc12 + C=C(F)C(=O)N1CCN(c2nc(OC[C@@H]3CCCN3C)nc3c2CCN(c2cccc4cccc(Cl)c24)C3)C[C@@H]1CC#N", "combination cScore with adagrasib", 0.92],
  ["Cc1c(-c2c(-c3ccc(F)o3)sc3ncnc(O[C@H](Cc4ccccc4OCc4ccnn4CC(F)(F)F)C(=O)O)c23)ccc(OCCN2CCN(C)CC2)c1Cl + C=C(F)C(=O)N1CCN(c2nc(OC[C@@H]3CCCN3C)nc3c2CCN(c2cccc4cccc(Cl)c24)C3)C[C@@H]1CC#N", "combination cScore with adagrasib", 4.73],
  ["O=c1[nH]cc(F)c(=O)[nH]1 [Fluorouracil (5-FU)] + C=C(F)C(=O)N1CCN(c2nc(OC[C@@H]3CCCN3C)nc3c2CCN(c2cccc4cccc(Cl)c24)C3)C[C@@H]1CC#N", "combination cScore with adagrasib", -0.87]
]}

* * *

Catalogue of molecules with associated combination cScore with adagrasib
Tested on: NCI-H2122
Assay: combination cScore with adagrasib (Bliss gap around IC50) (%PoC); higher = stronger additive effect
Structures can show the parent of a compound that is named as a salt.
Result type: combination cScore with adagrasib

{"columns": ["Molecule", "Measured result"],
 "data": [
  ["COc1ncc(-c2nc3c(n2C(C)C)[C@H](c2ccc(Cl)cc2)N(c2cc(Cl)cn(C)c2=O)C3=O)c(OC)n1 [HDM-201] + C=C(F)C(=O)N1CCN(c2nc(OC[C@@H]3CCCN3C)nc3c2CCN(c2cccc4cccc(Cl)c24)C3)C[C@@H]1CC#N", 1.48],
  ["CC[C@H](Nc1ncnc2[nH]cnc12)c1nc2cccc(F)c2c(=O)n1-c1ccccc1 [Cal-101] + C=C(F)C(=O)N1CCN(c2nc(OC[C@@H]3CCCN3C)nc3c2CCN(c2cccc4cccc(Cl)c24)C3)C[C@@H]1CC#N", 14.1],
  ["CCN(CC)CCNC(=O)c1c(C)[nH]c(/C=C2\\C(=O)Nc3ccc(F)cc32)c1C [Sunitinib] + C=C(F)C(=O)N1CCN(c2nc(OC[C@@H]3CCCN3C)nc3c2CCN(c2cccc4cccc(Cl)c24)C3)C[C@@H]1CC#N", 1.03],
  ["NC(=O)c1cnc(N[C@@H]2CCCC[C@@H]2N)nc1Nc1cccc(-n2nccn2)c1 + C=C(F)C(=O)N1CCN(c2nc(OC[C@@H]3CCCN3C)nc3c2CCN(c2cccc4cccc(Cl)c24)C3)C[C@@H]1CC#N", 11.8],
  ["CC(C)n1nc(-c2ccc3oc(N)nc3c2)c2c(N)ncnc21 [MLN-0128] + C=C(F)C(=O)N1CCN(c2nc(OC[C@@H]3CCCN3C)nc3c2CCN(c2cccc4cccc(Cl)c24)C3)C[C@@H]1CC#N", 7.57],
  ["Cc1nc(Nc2n[nH]c3c2CN(C(=O)N[C@H](CN(C)C)c2ccccc2)C3(C)C)c2sccc2n1 + C=C(F)C(=O)N1CCN(c2nc(OC[C@@H]3CCCN3C)nc3c2CCN(c2cccc4cccc(Cl)c24)C3)C[C@@H]1CC#N", 8.47],
  ["C[C@@H]1CCN(C(=O)CC#N)C[C@@H]1N(C)c1ncnc2[nH]ccc12 [Tofacitinib citrate] + C=C(F)C(=O)N1CCN(c2nc(OC[C@@H]3CCCN3C)nc3c2CCN(c2cccc4cccc(Cl)c24)C3)C[C@@H]1CC#N", -3.58],
  ["CC(C)c1cc(-c2n[nH]c(=O)n2-c2ccc3c(ccn3C)c2)c(O)cc1O [Ganetespib] + C=C(F)C(=O)N1CCN(c2nc(OC[C@@H]3CCCN3C)nc3c2CCN(c2cccc4cccc(Cl)c24)C3)C[C@@H]1CC#N", -3.01],
  ["CNS(=O)(=O)Nc1nccc(Cc2c(C)c3ccc(Oc4ncccn4)cc3oc2=O)c1F + C=C(F)C(=O)N1CCN(c2nc(OC[C@@H]3CCCN3C)nc3c2CCN(c2cccc4cccc(Cl)c24)C3)C[C@@H]1CC#N", 9.73],
  ["Oc1nc(-c2ccc(C(F)(F)F)cc2)nc2c1CSCC2 [XAV939] + C=C(F)C(=O)N1CCN(c2nc(OC[C@@H]3CCCN3C)nc3c2CCN(c2cccc4cccc(Cl)c24)C3)C[C@@H]1CC#N", 23.8],
  ["CN(C)CCCC(=O)Nc1n[nH]c2nnc(-c3ccccc3)cc12 + C=C(F)C(=O)N1CCN(c2nc(OC[C@@H]3CCCN3C)nc3c2CCN(c2cccc4cccc(Cl)c24)C3)C[C@@H]1CC#N", -12.3],
  ["Cc1c(Cn2c(C)nc3c(C(=O)O)cc(N4CCOCC4)cc32)cccc1C(F)(F)F + C=C(F)C(=O)N1CCN(c2nc(OC[C@@H]3CCCN3C)nc3c2CCN(c2cccc4cccc(Cl)c24)C3)C[C@@H]1CC#N", 8.98],
  ["O=C(O)C(=O)O.[NH-][C@@H]1CCCC[C@H]1[NH-].[Pt+2] [Oxaliplatin] + C=C(F)C(=O)N1CCN(c2nc(OC[C@@H]3CCCN3C)nc3c2CCN(c2cccc4cccc(Cl)c24)C3)C[C@@H]1CC#N", 5.21],
  ["CN1CC[C@H](c2c(O)cc(O)c3c(=O)cc(-c4ccccc4Cl)oc23)[C@H](O)C1 [Flavopiridol] + C=C(F)C(=O)N1CCN(c2nc(OC[C@@H]3CCCN3C)nc3c2CCN(c2cccc4cccc(Cl)c24)C3)C[C@@H]1CC#N", -0.29],
  ["Cc1ccc(C(=O)Nc2ccc(CN3CCN(C)CC3)c(C(F)(F)F)c2)cc1C#Cc1cnc2cccnn12 [Ponatinib] + C=C(F)C(=O)N1CCN(c2nc(OC[C@@H]3CCCN3C)nc3c2CCN(c2cccc4cccc(Cl)c24)C3)C[C@@H]1CC#N", 14.4],
  ["Cc1nc(NC(=O)N2CCC[C@H]2C(N)=O)sc1-c1ccnc(C(C)(C)C(F)(F)F)c1 [BYL-719] + C=C(F)C(=O)N1CCN(c2nc(OC[C@@H]3CCCN3C)nc3c2CCN(c2cccc4cccc(Cl)c24)C3)C[C@@H]1CC#N", 14.3],
  ["CC(=O)[C@]1(O)Cc2c(O)c3c(c(O)c2[C@@H](O[C@H]2C[C@H](N)[C@H](O)[C@H](C)O2)C1)C(=O)c1ccccc1C3=O [Idarubicin] + C=C(F)C(=O)N1CCN(c2nc(OC[C@@H]3CCCN3C)nc3c2CCN(c2cccc4cccc(Cl)c24)C3)C[C@@H]1CC#N", 4.03]
]}
